assay_text: gradient 5% acetonitrile 3 min, to 50% in 2 min, to 85% in 15 min, held 3 min, 100 µL/min
condition: column: Zorbax Extend-C18 2.1 x 50 mm; eluents: water / acetonitrile, 0.1% formic acid
measured_parameter: RP-LC retention time (s)

{"columns": ["molecular_string", "measured_parameter", "output_unit", "endpoint_value"],
 "data": [
  ["Cc1noc(C2(NC(=O)c3cccc(F)c3)CCCCC2)n1", "RP-LC retention time", "s", 860],
  ["Cc1ccc(NC(=O)Cn2c(C)nc3onc(C)c3c2=O)cc1F", "RP-LC retention time", "s", 735],
  ["Cc1nc(-c2cccs2)c(CCC(=O)Nc2nccs2)s1", "RP-LC retention time", "s", 752],
  ["O=C(c1ccccc1F)N1CCN(c2cc(-c3cccs3)[nH]n2)CC1", "RP-LC retention time", "s", 771]
]}

I. Cc1nnc2ccc(N3CCOCC3)nn12
II. O=C(CSc1ncnc2c1[nH]c1ccc(F)cc12)N1CCc2ccccc2C1
**Query** Returns: the label, I or II , whose recorded RP-LC retention time is the lower number. Indicate which entry you chose by stating its label.
**Result** I

====

assay_text: gradient 5% acetonitrile 3 min, to 50% in 2 min, to 85% in 15 min, held 3 min, 100 µL/min
condition: column: Zorbax Extend-C18 2.1 x 50 mm; eluents: water / acetonitrile, 0.1% formic acid
measured_parameter: RP-LC retention time (s)

Look over these answered cases.
{"columns": ["compound", "output_unit", "RP-LC retention time"],
 "data": [
  ["O=C(CSc1ccc(S(=O)(=O)c2ccccc2)nn1)Nc1ccc2c(c1)OCO2", "s", 822],
  ["COCCN1C(=O)CCc2cc(NC(=O)C3CCC3)ccc21", "s", 673],
  ["C=CCN1CCN(C(=O)C2CCN(c3nc(NC(C)=O)c(C(=O)N4CCCC4)s3)CC2)CC1", "s", 579],
  ["CCOC(=O)c1c(C)[nH]c(C(=O)N2CCC(CC(=O)NC(C)C)CC2)c1C", "s", 683],
  ["O=C(NCc1ccc2c(c1)OCO2)C1CCN(c2cncnc2N2CCCCC2)CC1", "s", 659]
]}

a. CN1C(=O)C2(CCN(C(=O)Cc3ccc(Cl)cc3)C2)c2ccccc21 (centres undefined)
b. Cc1nn(C)c(C)c1S(=O)(=O)N1CCC(Cc2nc(-c3cccnc3)n[nH]2)C1 (centres undefined)
**Query** When the recorded RP-LC retention time values are compared, which is smaller: that of a or that of b ? Could you answer with the label of the item you picked?
**Result** b

====

assay_text: gradient 5% acetonitrile 3 min, to 50% in 2 min, to 85% in 15 min, held 3 min, 100 µL/min
condition: column: Zorbax Extend-C18 2.1 x 50 mm; eluents: water / acetonitrile, 0.1% formic acid
measured_parameter: RP-LC retention time (s)

Reference set, count: 10
{"columns": ["molecule", "RP-LC retention time [s]"],
 "data": [
  ["COc1ccc(CNC(=O)CS(=O)(=O)c2cccs2)cc1", 676],
  ["Cc1ccccc1Nc1c(-c2ccccc2O)nc2c(C)cccn12", 701],
  ["Cc1cc2n(n1)CCC(=O)N2CCCC(=O)N1CCN(C(=O)c2ccco2)CC1", 604],
  ["Cc1sc2cc(C(=O)N(C)C)[nH]c2c1CN1CCCCC1", 606],
  ["CCOC(=O)c1cccc(NC(=O)CCc2ccc3nc(CC)[nH]c3c2)c1", 638],
  ["Cc1cc(C)n(-c2ccnc(N3CCC(C(=O)NC(C)c4ccc(F)cc4)CC3)n2)n1 (stereo not given)", 872],
  ["CC1=C(c2ccc(Cl)cc2)S(=O)(=O)N=C1N1CCCN(C(=O)NCC(C)C)CC1", 845],
  ["COc1ccc2nc(C(=O)NCc3cccc(Cl)c3)cn2n1", 846],
  ["CCCC(=O)Nc1ccc(-c2nc(-c3ccccc3)co2)cc1", 1010],
  ["CCN(C)C(=O)C1CN(C(=O)c2cccs2)CC1c1cccc(C(F)(F)F)c1 (stereo not given)", 823]
]}

P. Cc1nc(-c2ccc(NC(=O)c3ccc([N+](=O)[O-])cc3)cc2)cs1
Q. CCc1ccc(OCc2nc(C)c(C(=O)Nc3nc(-c4ccc(OC)cc4)cs3)s2)cc1
R. O=C(NCc1ccccn1)C1CN(C(=O)c2c[nH]c3ccccc23)C1
**Query** Task for the reader: rank each entry by its RP-LC retention time, from the minimum upward. Dear reader, please state the labels in the requested order.
**Result** R, P, Q
(R: 541 s, P: 855 s, Q: 1290 s)

P. O=C(NCCN1CCCCCC1)C1CCN(c2cnn(Cc3ccccc3)c(=O)c2)CC1
Q. CSc1ccc(CNC(=O)C2CCCN(c3nccn4nc(-c5ccc(F)cc5)cc34)C2)cc1 (stereo not given)
**Query** Please compare: P and Q . Report which one has the smaller RP-LC retention time value. Reply briefly: the label of your chosen item.
**Result** P

====

assay_text: gradient 5% acetonitrile 3 min, to 50% in 2 min, to 85% in 15 min, held 3 min, 100 µL/min
condition: column: Zorbax Extend-C18 2.1 x 50 mm; eluents: water / acetonitrile, 0.1% formic acid
measured_parameter: RP-LC retention time (s)

{"columns": ["compound", "RP-LC retention time (s)"],
 "data": [
  ["COc1cccc(CNC(=O)c2ccc3ncnc(N4CCCC4)c3c2)c1", 621],
  ["O=C(NCCN1CCOCC1)C1CC(=O)N(CCc2c[nH]c3ccc(Cl)cc23)C1 (stereo not given)", 604],
  ["O=C(Cc1ccc(F)cc1)N[C@H](Cc1ccccc1)C(=O)NCc1cscn1", 741],
  ["COc1cccc(CC(=O)Nc2ccc3c(c2)Sc2ncccc2C(=O)N3C)c1", 762],
  ["c1ccc(CCc2nc3nccc(-c4cccnc4)n3n2)cc1", 726]
]}

====

assay_text: gradient 5% acetonitrile 3 min, to 50% in 2 min, to 85% in 15 min, held 3 min, 100 µL/min
condition: column: Zorbax Extend-C18 2.1 x 50 mm; eluents: water / acetonitrile, 0.1% formic acid
measured_parameter: RP-LC retention time (s)

{"columns": ["compound", "output_unit", "endpoint_value"],
 "data": [
  ["COc1cc2c(cc1OC)C(C(=O)N1CC(C)CC(C)C1)C(c1cccnc1)N(C)C2=O (stereo not given)", "s", 659],
  ["CCOC(=O)c1ccc(NC(=O)N(Cc2cccs2)C2CCN(CC)CC2)cc1", "s", 670],
  ["COc1cccc2c1[C@@H]1CN(CCCCN3C(=O)NC4C(SC5NCC(c6ccccc6)NC54)C3=O)C[C@@H]1CO2 (stereo not given in full)", "s", 902],
  ["CCCN(CCC)CCCNC(=O)C1CCCN(c2ncc(-c3ccccc3)cn2)C1 (stereo not given)", "s", 719],
  ["Cc1cnn(Cc2nc(-c3ccc(NC(=O)c4cccs4)cc3)oc2C)c1", "s", 879],
  ["COc1ccccc1CC(=O)Nc1cccn2c(C3CCC3)nnc12", "s", 782],
  ["Cc1noc(C)c1S(=O)(=O)N[C@@H]1CN(Cc2ccccc2)C[C@H]1CN(C)C", "s", 570],
  ["CCc1nncn1C1CCN(C(=O)c2cc(F)ccc2F)CC1", "s", 604],
  ["O=C(NC1CC1)c1nc(C(=O)N2CCN(c3ccccc3Cl)CC2)cs1", "s", 881],
  ["CCc1nncn1C1CCN(S(=O)(=O)c2cc(Cl)ccc2OC)CC1", "s", 709],
  ["Cn1c(N)c(S(=O)(=O)N2CCN(c3ccccc3F)CC2)c(=O)n(C)c1=O", "s", 701],
  ["COc1ccc(N2CCN(c3cc(SCC(=O)NCCC(C)C)ncn3)CC2)cc1", "s", 873],
  ["Cc1onc(-c2ccccc2Cl)c1C(=O)NCCN(C)C", "s", 591],
  ["Cc1cc2nc(C)c(CCC(=O)O)c(C)n2n1", "s", 597],
  ["CCn1c(CCNC(=O)Cc2ccc(Cl)cc2)nc2cccnc21", "s", 639],
  ["O=C(NCc1cccs1)C1CCN(Cc2cc3ccccc3n2Cc2ccccc2Cl)CC1", "s", 821],
  ["Cc1ccc(Nc2c(-c3ccc(Cl)cc3)nc3cccc(C)n23)cc1", "s", 810],
  ["O=C(Cn1nc2c(N3CCc4ccccc4C3)nccn2c1=O)NC1CCCCC1", "s", 865],
  ["O=C(O)c1cc2cc(F)ccc2[nH]1", "s", 791],
  ["O=C(Cc1c[nH]c2ncccc12)NCC1CCCCC1", "s", 644]
]}

====

assay_text: gradient 5% acetonitrile 3 min, to 50% in 2 min, to 85% in 15 min, held 3 min, 100 µL/min
condition: column: Zorbax Extend-C18 2.1 x 50 mm; eluents: water / acetonitrile, 0.1% formic acid
measured_parameter: RP-LC retention time (s)

Illustrative cases are given below, each with its answer.
{"columns": ["compound", "endpoint_value"],
 "data": [
  ["Cc1cccc(Cn2c(=O)n(CCNC(=O)C3CCCO3)c3ncccc32)c1 (centres undefined)", 715],
  ["COc1ccc(Cl)cc1NC(=O)CN1C(=O)CC(C)Sc2ccccc21 (centres undefined)", 926]
]}

A. COc1cccc(NC(=O)Cn2c(=O)n(-c3ccccc3)c(=O)c3c2cc(C)n3C)c1
B. COc1ccc(N2CCN(S(=O)(=O)c3cc(-c4cc(C(F)(F)F)on4)sc3C)CC2)cc1
**Query** Which has the smaller recorded RP-LC retention time, A or B ? Response format: the label of the selected entry.
**Result** A

I. O=S(=O)(c1cc(-c2noc(C3CCCC3)n2)cs1)N(Cc1cccs1)C1CCCC1
II. Nc1nc(CN2CCN(c3ncccn3)CC2)nc(N2CCCCC2)n1
**Query** // returns I or II , whichever has the lower RP-LC retention time Lab note: record the label of whichever item you select.
**Result** II
(II: 611 s, I: 933 s)

I. c1ccc(SCc2nnc3sc(-c4cnccn4)nn23)cc1
II. O=C(Nc1ccc(-c2nc(-c3ccc(F)cc3)no2)cc1)c1ccc(Br)o1
**Query** Which value of RP-LC retention time is smaller, the one for I or the one for II ? Indicate your choice by writing its label.
**Result** I

A. Cc1ccc(C)c(N2C(=O)CN(S(C)(=O)=O)CC2(C)C(=O)NCc2ccc(Cl)cc2)c1 (centres undefined)
B. OC1(Cc2ccccc2)CCNCC1
**Query** Looking only at measured RP-LC retention time, which entry is lower, A or B ? Choose, then provide that item's label.
**Result** B

1. O=C(Cn1nc(S(=O)(=O)c2cccc(F)c2)ccc1=O)N1CCN(c2ccccc2F)CC1
2. CCOC(=O)C1CCN(C(=O)c2cn3c(n2)CCCC3)CC1
**Query** Record comparison, field RP-LC retention time: mark the lower of 1 and 2 . Your answer should be the label attached to the chosen record.
**Result** 2

P. CCc1ccc(NC(=O)C2CCCN(S(=O)(=O)c3cc(-c4noc(C)n4)cs3)C2)cc1 (centres undefined)
Q. Cc1cc(C)c2c(n1)SCC(=O)N2CC(=O)NCCCN(C)Cc1ccccc1
**Query** Hello, I am sorting some records. Could you say if P or Q has the smaller RP-LC retention time value? Answer by quoting the chosen item's label.
**Result** Q
(Q: 587 s, P: 992 s)
